Target: human PDHK1 (hPDHK1) (Homo sapiens (Human))
Sequence (Q15118 29-436): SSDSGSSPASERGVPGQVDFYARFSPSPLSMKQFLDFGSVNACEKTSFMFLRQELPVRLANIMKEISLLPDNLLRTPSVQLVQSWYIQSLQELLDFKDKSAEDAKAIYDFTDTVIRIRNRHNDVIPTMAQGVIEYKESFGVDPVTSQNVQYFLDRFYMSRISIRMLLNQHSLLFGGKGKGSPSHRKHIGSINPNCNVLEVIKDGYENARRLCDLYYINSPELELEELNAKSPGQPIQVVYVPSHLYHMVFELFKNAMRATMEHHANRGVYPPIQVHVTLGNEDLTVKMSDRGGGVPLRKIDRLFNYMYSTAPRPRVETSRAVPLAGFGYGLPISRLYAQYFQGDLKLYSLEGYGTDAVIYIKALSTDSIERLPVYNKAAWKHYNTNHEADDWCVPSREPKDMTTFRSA
Experiment: Inhibitory action of PDHK1 activity in vitro (residual PDH activity after PDHK reaction)
Details: PDH/hPDHK1 complex solution, PDHK reaction at room temperature for 45 min, NADH absorbance at 340 nm; read-out: hPDK1 IC50
Experimental: The inhibitory action of PDHK activity was assessed indirectly by measuring the residual PDH activity after PDHK reaction in the presence of a test compound. (Inhibitory Action of PDHK1 Activity) In the case of human PDHK1 (hPDHK1, NCBI Reference Database Accession number NM_002610.3), a 1.3 kbp fragment encoding this protein was isolated from human liver cDNA by polymerase chain reaction (PCR). […]
MEASURED_PARAMETER: pIC50
One number for each entry, as −log10 of the molar value.

Some solved cases for reference:
* C[C@H]1CN(C(=O)c2cc(-c3ccc(F)cc3)nn2C)Cc2cnc([C@@](C)(O)C(F)(F)F)n21 | 8.22
* C[C@H]1CN(C(=O)C(C)(C)c2ccc(C(=O)O)c(C3CC3)c2)Cc2onc([C@@](C)(O)C(F)(F)F)c21 | 7.77
* C[C@H]1CN(C(=O)c2cc(C3(C)CC3)nn2C)Cc2onc([C@@](C)(O)C(F)(F)F)c21 | 8.40
* C[C@H]1CN(C(=O)c2nn(C)c(-c3ccc(C#N)cc3)c2Cl)Cc2cnc([C@@](C)(O)C(F)(F)F)n21 | 8.22
* C[C@H]1CN(C(=O)c2cc(-c3ccc(C#N)cc3F)nn2C)Cc2cnc([C@@](C)(O)C(F)(F)F)n21 | 8.40
* C[C@H]1CN(C(=O)c2cnc(-c3ccccc3)nc2)Cc2cnc([C@@](C)(O)C(F)(F)F)n21 | 8.00
* Cc1cc(C#N)ccc1-c1cc(C(=O)N2Cc3cnc([C@@](C)(O)C(F)(F)F)n3[C@@H](C)C2)ccn1 | 8.30
* C[C@H]1CN(C(=O)c2ccc(F)c(-c3ccc(F)cn3)c2)Cc2cnc([C@@](C)(O)C(F)(F)F)n21 | 8.52

Hi! Can you tell me pIC50 for each of these compounds?
1. C[C@H]1CN(C(=O)c2cc(C3CC3)nn2CC(F)(F)F)Cc2cnc([C@@](C)(O)C(F)(F)F)n21
2. C[C@H]1CN(C(=O)c2cc3ccccc3o2)Cc2cnc([C@@](C)(O)C(F)(F)F)n21

1: 8.40; 2: 7.54

State the recorded pIC50 for this entry: Cc1cc(-c2ccc(F)cc2C#N)ncc1C(=O)N1Cc2cnc([C@@](C)(O)C(F)(F)F)n2[C@@H](C)C1 8.40

Reference for the values: patent US10800784B2
